# TEST TARGET: NTMT1 (Homo sapiens)
# Construct: made in house
# PROTOCOL: NTMT1 biochemical assay (SAHH-coupled fluorescence assay)
pIC50: −log10 of the molar value.

{"columns": ["MOLECULE", "pIC50"],
 "data": [
  ["NCCCC[C@H](NC(=O)[C@@H]1CCCN1C(=O)Cc1cccc2ccccc12)C(=O)NCCc1ccc(-c2ccccc2)cc1 [Compound 1j]", 5.60]
]}

* * *

# PROTOCOL: in vitro
# RUN CONDITIONS: PAMPA

{"columns": ["COMPOUND", "Papp at 5 h, 200 μM"],
 "data": [
  ["NCCCC[C@H](NC(=O)[C@@H]1CCCN1C(=O)Cc1cccc2ccccc12)C(=O)NCc1cccc(Br)c1 [Compound 1g]", "0.6 ×10⁻⁶ cm/s"],
  ["NCCCC[C@H](NC(=O)[C@@H]1CCCN1C(=O)Cc1cccc2ccccc12)C(=O)NCc1ccc(Br)cc1 [Compound 1h]", "0.9 ×10⁻⁶ cm/s"],
  ["NCCCC[C@H](NC(=O)[C@@H]1CCCN1C(=O)Cc1cccc2ccccc12)C(=O)NCC1CCCCC1 [Compound 1f]", "0.47 ×10⁻⁶ cm/s"],
  ["NCCCC[C@H](NC(=O)[C@@H]1CCCN1C(=O)Cc1cccc2ccccc12)C(=O)NCCc1cccc(-c2ccccc2)c1 [Compound 1k]", "1.3 ×10⁻⁶ cm/s"]
]}

* * *

# Test system: me3-RCC1
# PROTOCOL: Cellular N-terminal methylation assay, me3-RCC1
# Format: cell-based, human
# RUN CONDITIONS: Homo sapiens, HCT-116; HCT116 cells; read-out: Cellular IC50 on N-terminal methylation of RCC1
pIC50: −log10 of the molar value.

{"columns": ["MOLECULE", "pIC50"],
 "data": [
  ["NCCCC[C@H](NC(=O)[C@@H]1CCCN1C(=O)Cc1cccc2ccccc12)C(=O)NCCc1ccccc1 [Compound 1d]", "~4.30"]
]}

* * *

Parameter pIC50: see the listing below.
# TEST TARGET: NTMT1 (Homo sapiens, UniProt Q9BV86)
# Construct: made in house
# Sequence (Q9BV86 1-223): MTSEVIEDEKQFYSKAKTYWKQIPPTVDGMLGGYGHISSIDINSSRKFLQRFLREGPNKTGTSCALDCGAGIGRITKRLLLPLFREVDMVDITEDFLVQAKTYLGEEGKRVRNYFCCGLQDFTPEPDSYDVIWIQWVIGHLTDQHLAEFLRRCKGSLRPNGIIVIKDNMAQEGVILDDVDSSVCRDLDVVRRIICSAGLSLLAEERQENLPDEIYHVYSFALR
# PROTOCOL: NTMT1 biochemical assay (SAHH-coupled fluorescence assay)
# RUN CONDITIONS: recombinant NTMT1; n = 2, mean ± SD
pIC50: −log10 of the molar value.
OUTCOME MEASURE: pIC50

{"columns": ["COMPOUND", "EXPERIMENTAL RESULT"],
 "data": [
  ["NCCCC[C@H](NC(=O)[C@@H]1CCCN1C(=O)Cc1cccc2ccccc12)C(=O)Nc1ccccc1C(N)=O [DC541]", 6.47],
  ["NCCCC[C@H](NC(=O)[C@@H]1CCCN1C(=O)Cc1cccc2ccccc12)C(=O)NCc1ccccc1 [Compound 1c]", 6.04],
  ["NCCCC[C@H](NC(=O)[C@@H]1CCCN1C(=O)Cc1cccc2ccccc12)C(=O)NCCc1cccc(-c2ccccc2)c1 [Compound 1k]", 6.16],
  ["NCCCC[C@H](NC(=O)[C@@H]1CCCN1C(=O)Cc1cccc2ccccc12)C(=O)NCc1ccc(Br)cc1 [Compound 1h]", 6.09],
  ["NCCCC[C@H](NC(=O)[C@@H]1CCCN1C(=O)Cc1cccc2ccccc12)C(=O)NCC1CCCCC1 [Compound 1f]", 6.03],
  ["NCCCC[C@H](NC(=O)[C@@H]1CCCN1C(=O)Cc1cccc2ccccc12)C(=O)NCCCc1ccccc1 [Compound 1e]", 6.19],
  ["NCCCC[C@H](NC(=O)[C@@H]1CCCN1C(=O)Cc1cccc2ccccc12)C(=O)NCc1cccc(Br)c1 [Compound 1g]", 6.24],
  ["NCCCC[C@H](NC(=O)[C@@H]1CCCN1C(=O)Cc1cccc2ccccc12)C(=O)Nc1cccc(Br)c1 [Compound 1a]", 6.77],
  ["NCCCC[C@H](NC(=O)[C@@H]1CCCN1C(=O)Cc1cccc2ccccc12)C(=O)Nc1ccc(Br)cc1 [Compound 1b]", 6.74]
]}

These entries and their values trace back to patent US20250115636A1.
